Parameter pIC50: see the listing below.
Test system: KC-1362 BaF3-EGFR D770-N771 ins NPG cells
Test: Anti-proliferative activity on KC-1362 BaF3-EGFR D770-N771 ins NPG cells
Type: cell-based
Conditions: Ba/F3 EGFR
Value format note: pIC50 is -log10 of concentration (mol/L); just state the number.

The examples below pair each entry with its known result.
C=CC(=O)N1CC[C@@H](Nc2nc(Nc3cnn(C)c3)nc3[nH]cc(C(=O)c4ccc(F)cc4)c23)C1 [Example 109]    6.92
CN1CCN(c2ccc(Nc3nc(N[C@H]4CC[C@@H](CO)CC4)c4c(C(=O)c5ccc(F)cc5)c[nH]c4n3)cc2)CC1 [Example 60]    7.15
CN1CCN(c2ccc(Nc3nc(NC4CC5(COC5)C4)c4c(C(=O)c5ccc(F)cc5)c[nH]c4n3)cc2)CC1 [Example 18]    6.82
CN1CCN(c2ccc(Nc3nc(N[C@H]4CC[C@H](CO)CC4)c4c(C(=O)c5ccc(F)cc5)c[nH]c4n3)cc2)CC1 [Example 42]    7.46
CN1CCN(c2ccc(Nc3nc(NC4CCN(S(C)(=O)=O)CC4)c4c(C(=O)c5ccc(F)cc5)c[nH]c4n3)cc2)CC1 [Example 64]    6.70

Item: CCN1CCN(c2ccc(Nc3nc(N[C@H]4CC[C@@H](CO)CC4)c4c(C(=O)c5ccc(F)cc5)c[nH]c4n3)cc2)CC1 [Example 104] | pIC50: 6.80

Query CN1CCN(c2ccc(Nc3nc(NC45CC6CC(C4)C(O)C(C6)C5)c4c(C(=O)c5ccc(F)cc5)c[nH]c4n3)cc2)CC1 (centres unmarked) [Example 71] yields pIC50 of 7.15

Record C=CC(=O)N1CC[C@@H](Nc2nc(Nc3ccc(N4CCN(C)CC4)cc3)nc3[nH]cc(C(=O)c4ccc(F)cc4)c23)C1 [Example 26] , field pIC50: 6.82

Just so you know, measured pIC50 for CN1CCC(n2cc(Nc3nc(N[C@H]4CC[C@@H](CO)CC4)c4c(C(=O)c5ccc(F)cc5)c[nH]c4n3)cn2)CC1 [Example 115] came out at 6.25

pIC50 measured on Cn1cc(Nc2nc(N[C@H]3CC[C@@H](CO)CC3)c3c(C(=O)c4ccc(F)cc4)c[nH]c3n2)cn1 [Example 114] = 6.80

Looking up CN1CCN(c2ccc(Nc3nc(NC45CC6CC(CC(O)(C6)C4)C5)c4c(C(=O)c5ccc(F)cc5)c[nH]c4n3)cc2)CC1 [Example 70] , I see its pIC50 listed as 7.27

====

System: KC-1474:PC-9 EGFR-Del19/T790M/C797S
Assay: Cell proliferation inhibition experiment (CCK-8), KC-1474
Assay type: cell-based
Details: Homo sapiens, 72 h
Listing: IC50 of selected compounds

Cn1cc(Nc2nc(N[C@H]3CC[C@@H](CO)CC3)c3c(C(=O)c4ccc(F)cc4)c[nH]c3n2)cn1    < 0.1 µM

Sure, the documented IC50 for CN1CCN(c2ccc(Nc3nc(N[C@H]4C=C[C@@H](CO)C4)c4c(C(=O)c5ccc(F)cc5)c[nH]c4n3)cc2)CC1 is 0.1 to 1 µM

# compound CN(C)CCOc1ccc(Nc2nc(N[C@H]3CC[C@@H](CO)CC3)c3c(C(=O)c4ccc(F)cc4)c[nH]c3n2)cc1 ; its IC50 = 0.1 to 1 µM

Lab book: IC50 of CN1CCN(c2ccc(Nc3nc(N[C@@H]4C=C[C@H](CO)C4)c4c(C(=O)c5ccc(F)cc5)c[nH]c4n3)cc2)CC1 noted as 0.1 to 1 µM
